target.desc: GTPase KRas (Homo sapiens, UniProt P01116, G12D)
experimental.protocol: Inhibition of KRas G12D mutant in human ASPC1 cells assessed as inhibition of ERK phosphorylation at Thr202/Tyr204 residues incubated for 3 hrs by Western blot analysis
Format: cell-based

compound	IC50
N#Cc1c(N)sc2c(F)ccc(-c3c(Cl)c4c5c(nc(OC[C@@]67CCCN6C[C@H](F)C7)nc5c3F)N3CCCOC[C@H]3CO4)c12 (single isomer, unassigned; atropisomer 2)	600 pM

* * *

target.desc: GTPase KRas (Homo sapiens, UniProt P01116, G12D)
experimental.protocol: Inhibition of KRas G12D mutant in human SW620 cells assessed as inhibition of ERK phosphorylation at Thr202/Tyr204 residues incubated for 3 hrs by Western blot analysis
Assay type: cell-based

molecule	IC50 (nM)
N#Cc1c(N)sc2c(F)ccc(-c3c(Cl)c4c5c(nc(OC[C@@]67CCCN6C[C@H](F)C7)nc5c3F)N3CCCOC[C@H]3CO4)c12 (single isomer, unassigned; atropisomer 2)	1
